Attribution: patent US20240327334A1

Measured target: SARS-CoV-2 Papain-like (PLpro) protease (Severe acute respiratory syndrome coronavirus 2, UniProt P0DTD1)
Procedure details: SARS-CoV-2 Papain-like (PLpro) protease biochemical enzyme inhibition assay (ubiquitin-fluorophore substrate, Ub-R110)
Experimental parameters: Ub-R110 substrate; run in duplicate; read-out: PLpro IC50
pIC50: −log10 of the molar value.
Let's look at some compounds and their measured pIC50.

{"Compound": "C#CCNC(=O)C(=O)NCc1ccccc1C(=O)NC1(c2cc(Cl)cc(-c3cncs3)c2)CC1", "pIC50": "> 7.00"}
{"Compound": "O=C(NCC#Cc1nccs1)C(=O)NCc1ccccc1C(=O)NC1(c2ccc3ccccc3c2)CC1", "pIC50": "> 7.00"}
{"Compound": "O=C(/C=C/CNC(=O)C(=O)NCc1ccccc1C(=O)NC1(c2cccc3ccccc23)CC1)NC1CC1", "pIC50": "6.00 to 7.00"}
{"Compound": "C#CCNC(=O)C(=O)NCc1ccccc1C(=O)NC1(c2cc(C#N)cc(-c3cccs3)c2)CC1", "pIC50": "> 7.00"}
{"Compound": "N#CCNC(=O)C(=O)NCc1ccccc1C(=O)NC1(c2ccnc3ccccc23)CC1", "pIC50": "> 7.00"}
{"Compound": "C[C@@H](C#Cc1ccc(C#N)cc1C#N)NC(=O)C(=O)NCc1ccccc1C(=O)NC1(c2ccc3nn(C)cc3c2)CC1", "pIC50": "5.00 to 6.00"}
{"Compound": "C[C@@H](C#Cc1nccs1)NC(=O)C(=O)NCc1ccccc1C(=O)N[C@H](C)c1cc(F)cc(-c2cnn(C3CC3)c2)c1", "pIC50": "> 7.00"}
{"Compound": "C[C@@H](C#Cc1nccs1)NC(=O)C(=O)NCc1ccccc1C(=O)NC1(c2ccc3nn(C)cc3c2F)CC1", "pIC50": "> 7.00"}
{"Compound": "CN(C#N)NC(=O)C(=O)NCc1ccccc1C(=O)NC1(c2ccc(F)c3ccccc23)CC1", "pIC50": "5.00 to 6.00"}
{"Compound": "COCCN(C)C(=O)/C=C/CNC(=O)C(=O)NCc1ccccc1C(=O)NC1(c2cccc3ccccc23)CC1", "pIC50": "6.00 to 7.00"}
{"Compound": "COc1ccc2cccc(C3(NC(=O)c4ccccc4CNC(=O)C(=O)NCC#N)CC3)c2c1", "pIC50": "> 7.00"}
{"Compound": "Cn1cc2ccc(C3(NC(=O)c4ccccc4CNC(=O)C(=O)NCC#N)CC3)cc2n1", "pIC50": "6.00 to 7.00"}
{"Compound": "C#CCNC(=O)C(=O)NCc1ccccc1C(=O)NC1(c2ccc(F)c(-c3cn(C)nc3C)c2)CC1", "pIC50": "> 7.00"}
{"Compound": "N#CCNC(=O)C(=O)NCc1ccccc1C(=O)NC1(c2cccc(C(F)(F)F)c2Cl)CC1", "pIC50": "6.00 to 7.00"}
{"Compound": "C#C[C@@H](C)NC(=O)C(=O)NCc1ccccc1C(=O)NC1(c2cccc3ccccc23)CC1", "pIC50": "5.00 to 6.00"}
{"Compound": "C[C@@H](NC(=O)c1ccccc1CNC(=O)C(=O)NCC#N)c1cc(C(F)(F)F)nc2ccccc12", "pIC50": "< 5.00"}
{"Compound": "CN1CCC(n2cc(-c3cc(F)cc(C4(NC(=O)c5ccccc5CNC(=O)C(=O)NCC#Cc5ncco5)CC4)c3)cn2)CC1", "pIC50": "> 7.00"}
{"Compound": "C#CCNC(=O)C(=O)NCc1ccccc1C(=O)NC1(c2cccc3nc(Cl)ccc23)CC1", "pIC50": "> 7.00"}
{"Compound": "N#CN1CCC(F)(C(=O)NCc2ccccc2C(=O)NC2(c3cc(Br)cc4ccccc34)CC2)C1 (stereo not drawn)", "pIC50": "> 7.00"}
{"Compound": "C#CCNC(=O)C(=O)NCc1ccccc1C(=O)NC1(c2cc(-c3nnc(C)o3)cc(-c3nnc(C)o3)c2)CC1", "pIC50": "6.00 to 7.00"}
{"Compound": "C[C@@H](C#Cc1ccc(Cl)cc1C#N)NC(=O)C(=O)NCc1ccccc1C(=O)NC1(c2ccc3nn(C)cc3c2)CC1", "pIC50": "> 7.00"}
{"Compound": "O=C(NC/C=C/C(=O)N1CCCO1)C(=O)NCc1ccccc1C(=O)NC1(c2cccc3ccccc23)CC1", "pIC50": "6.00 to 7.00"}
{"Compound": "CC(C)(O)Cn1cc(-c2cc(F)cc(C3(NC(=O)c4ccccc4CNC(=O)C(=O)NCC#Cc4ncccc4Cl)CC3)c2)cn1", "pIC50": "> 7.00"}
{"Compound": "N#CN1CCC(C(=O)NCc2ccccc2C(=O)NC2(c3cccc4ccccc34)CC2)C1 (stereo not drawn)", "pIC50": "> 7.00"}
{"Compound": "N#CCNC(=O)C(=O)NCc1ccc(C#N)cc1C(=O)NC1(c2ccc(F)c3ccccc23)CC1", "pIC50": "> 7.00"}
{"Compound": "C#CCNC(=O)C(=O)NCc1ccccc1C(=O)NC1(c2ccc3nn(C)cc3c2)CC1", "pIC50": "> 7.00"}
{"Compound": "C[C@@H](C#Cc1nccs1)NC(=O)C(=O)NCc1ccccc1C(=O)NC1(c2cccc3c2ccn3C)CC1", "pIC50": "> 7.00"}
